Data credit: patent US10766894B2

Tested on: mouse immortalized TT-D6 Scx-luciferase (ScxL) cell line; transcriptional activation of Scleraxis (Scx) gene
Assay: SCX-LUC in vitro assay (scleraxis promoter luciferase reporter)
Format: cell-based
Conditions: Mus musculus, 96 h; Examples table; TT-D6 Scx-luciferase cells, 1 ng/ml TGFβ1, four days; read-out: Scx-Luc (EC50 μM)
Please assign No whenever EC50 is at or above 2 µM, and Yes whenever it is below.

molecule	label class
Nc1n[nH]c2ccc(-c3ccc(S(=O)(=O)NC4CCS(=O)(=O)CC4)cc3Cl)nc12 [Example 50]	No
Nc1n[nH]c2ccc(-c3ccc(NS(=O)(=O)c4cccc(C(F)(F)F)c4)cc3Cl)nc12 [Example 62]	Yes
COc1ccc(S(=O)(=O)Nc2ccc(-c3ccc4[nH]nc(N)c4n3)c(Cl)c2)cc1NC(C)=O [Example 61]	Yes
Nc1n[nH]c2ccc(-c3ccc(S(=O)(=O)NC4CS(=O)(=O)C4)cc3Cl)nc12 [Example 92]	Yes
CC1CCC(NS(=O)(=O)c2ccc(-c3ccc4[nH]nc(N)c4n3)c(Cl)c2)CC1 (centres unmarked) [Example 36]	Yes
Nc1n[nH]c2ccc(-c3ccc(S(=O)(=O)N[C@H]4C[C@@H](CO)C4)cc3Cl)nc12 [Example 85]	Yes
Nc1n[nH]c2ccc(-c3ccc(S(=O)(=O)N[C@@H]4CC[C@H](O)C4)cc3Cl)nc12 [Example 23]	No
Nc1n[nH]c2ccc(-c3ccc(S(=O)(=O)Nc4cccc(Cl)c4F)cc3Cl)nc12 [Example 52]	Yes
